- TARGET ENTITY: Rap guanine nucleotide exchange factor 4 (Homo sapiens) (UniProt Q8WZA2)
- Sequence (Q8WZA2 whole entry, looked up): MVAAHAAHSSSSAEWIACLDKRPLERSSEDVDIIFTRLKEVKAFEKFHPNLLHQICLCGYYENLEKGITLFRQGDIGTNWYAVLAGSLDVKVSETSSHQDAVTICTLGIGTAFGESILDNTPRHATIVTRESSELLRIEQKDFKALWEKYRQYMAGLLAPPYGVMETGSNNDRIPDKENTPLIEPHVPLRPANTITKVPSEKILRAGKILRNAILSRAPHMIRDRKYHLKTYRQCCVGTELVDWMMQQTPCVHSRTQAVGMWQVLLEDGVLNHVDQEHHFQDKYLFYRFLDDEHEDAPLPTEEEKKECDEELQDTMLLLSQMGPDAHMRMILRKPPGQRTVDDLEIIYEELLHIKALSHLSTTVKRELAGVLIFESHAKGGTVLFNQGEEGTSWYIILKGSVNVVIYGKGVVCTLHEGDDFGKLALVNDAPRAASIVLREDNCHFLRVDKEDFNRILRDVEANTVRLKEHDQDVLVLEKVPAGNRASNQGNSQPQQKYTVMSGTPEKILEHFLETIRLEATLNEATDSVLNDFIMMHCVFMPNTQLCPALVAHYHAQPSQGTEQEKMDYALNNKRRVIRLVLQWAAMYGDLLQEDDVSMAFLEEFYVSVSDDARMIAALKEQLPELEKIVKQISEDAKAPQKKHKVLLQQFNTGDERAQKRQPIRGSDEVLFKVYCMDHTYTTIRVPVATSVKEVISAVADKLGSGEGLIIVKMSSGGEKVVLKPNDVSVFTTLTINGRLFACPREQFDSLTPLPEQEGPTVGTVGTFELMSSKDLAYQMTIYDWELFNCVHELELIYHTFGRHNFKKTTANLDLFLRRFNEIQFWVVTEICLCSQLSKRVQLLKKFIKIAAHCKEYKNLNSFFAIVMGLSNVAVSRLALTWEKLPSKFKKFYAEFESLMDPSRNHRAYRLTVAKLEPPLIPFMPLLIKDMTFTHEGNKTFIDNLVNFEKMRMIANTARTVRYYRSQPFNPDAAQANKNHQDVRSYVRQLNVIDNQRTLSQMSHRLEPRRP
- TEST DESCRIPTION: Confirmatory qHTS for agonist of cAMP-regulated guanine nucleotide exchange factor 4 (EPAC2) (AID 1645884);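 note: nucleotide exchange releases bodipy-GDP from Rap1 and this lowers its fluorescence; nearly all actives have a fitted effect of over 65% in size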
- SETUP CONDITIONS: EPAC2 GEF activity, Rap1B-BODIPY-GDP fluorescence; series mostly up to 154 µM
Records with an inconclusive call do not appear. Calls of active or inactive are those of the source. Calls come from the whole dose curve; as a rule, active = well fitted activation curve with a large enough effect; inconclusive = small, poorly fitted or top-dose-only effect; inactive = no such curve, though single readings can be large or run the other way.

# COMPOUND, TARGET ENTITY, activation
records = [
    ("CCOc1cc(/C=N/Nc2ccc(C(=O)O)cc2)ccc1OC(=O)c1ccccc1C", "Rap guanine nucleotide exchange factor 4 (Homo sapiens) (UniProt Q8WZA2)", "inactive"),
    ("CCCCn1nnnc1C(c1ccccc1)N1CCN(c2ccc(F)cc2)CC1 (stereo not drawn)", "Rap guanine nucleotide exchange factor 4 (Homo sapiens) (UniProt Q8WZA2)", "inactive"),
    ("CCCc1nc2c3ccccc3ccn2c1CC(C)(C)C", "Rap guanine nucleotide exchange factor 4 (Homo sapiens) (UniProt Q8WZA2)", "inactive"),
    ("CCC1(c2ccccc2)SCC(c2ccccc2)=NC1=O (stereo not drawn)", "Rap guanine nucleotide exchange factor 4 (Homo sapiens) (UniProt Q8WZA2)", "inactive"),
    ("CCOC(=O)C1CCN(c2c(C(=O)c3ccc(C)cc3)cnc3ccc(F)cc23)CC1", "Rap guanine nucleotide exchange factor 4 (Homo sapiens) (UniProt Q8WZA2)", "inactive"),
    ("CCN(CC(=O)Nc1c(F)cccc1F)C(=O)/C=C/c1ccc2ccccc2n1", "Rap guanine nucleotide exchange factor 4 (Homo sapiens) (UniProt Q8WZA2)", "inactive"),
    ("CCOC(=O)C1=C(C)N=c2s/c(=C\\c3ccc(OCC(=O)O)cc3)c(=O)n2C1c1ccc(OC(C)C)cc1 (stereo not drawn)", "Rap guanine nucleotide exchange factor 4 (Homo sapiens) (UniProt Q8WZA2)", "inactive"),
    ("Cc1cccc(S(=O)(=O)Nc2ccc(S(=O)(=O)Nc3nccs3)cc2)c1", "Rap guanine nucleotide exchange factor 4 (Homo sapiens) (UniProt Q8WZA2)", "inactive"),
    ("Cc1nc(-c2ccc(Cl)cc2)sc1CCNC(=O)c1cccs1", "Rap guanine nucleotide exchange factor 4 (Homo sapiens) (UniProt Q8WZA2)", "inactive"),
    ("N#CC(c1ccccc1)C(CC(=NO)c1ccccc1)c1ccccc1 (stereo not drawn)", "Rap guanine nucleotide exchange factor 4 (Homo sapiens) (UniProt Q8WZA2)", "inactive"),
    ("CC(=O)Nc1c(C)nn(-c2ccccc2)c1N1CCC(C(=O)NCc2cccc(F)c2)CC1", "Rap guanine nucleotide exchange factor 4 (Homo sapiens) (UniProt Q8WZA2)", "inactive"),
    ("O=C(COc1ccccc1-c1ccccc1)NCc1ccco1", "Rap guanine nucleotide exchange factor 4 (Homo sapiens) (UniProt Q8WZA2)", "inactive"),
    ("CCOc1ccc(Br)cc1S(=O)(=O)Nc1ccc(S(=O)(=O)Nc2cc(C)on2)cc1", "Rap guanine nucleotide exchange factor 4 (Homo sapiens) (UniProt Q8WZA2)", "inactive"),
    ("CN(C)c1ncc2ncc(=O)n(Cc3cccs3)c2n1", "Rap guanine nucleotide exchange factor 4 (Homo sapiens) (UniProt Q8WZA2)", "inactive"),
    ("Cc1ccc(C(=O)c2no[n+]([O-])c2C(=O)c2ccc(C)cc2)cc1", "Rap guanine nucleotide exchange factor 4 (Homo sapiens) (UniProt Q8WZA2)", "inactive"),
    ("FC(F)(F)c1cccc(CN2CCC(c3cc(-c4cccs4)n[nH]3)CC2)c1", "Rap guanine nucleotide exchange factor 4 (Homo sapiens) (UniProt Q8WZA2)", "inactive"),
    ("COc1ccc(Oc2ncc3nc(CCc4ccccc4)c(=O)n(CCC#N)c3n2)cc1", "Rap guanine nucleotide exchange factor 4 (Homo sapiens) (UniProt Q8WZA2)", "inactive"),
    ("Cc1ccc(O)c(-c2n[nH]c3c2C(c2ccc(F)cc2)N(Cc2ccco2)C3=O)c1 (stereo not drawn)", "Rap guanine nucleotide exchange factor 4 (Homo sapiens) (UniProt Q8WZA2)", "inactive"),
    ("CN(C)S(=O)(=O)c1ccc(N2CCCC2)c(C(=O)NCC2COc3ccccc3O2)c1 (stereo not drawn)", "Rap guanine nucleotide exchange factor 4 (Homo sapiens) (UniProt Q8WZA2)", "inactive"),
    ("COc1ccc(N(C(=O)c2ccco2)S(=O)(=O)c2cc(OC)ccc2OC)cc1", "Rap guanine nucleotide exchange factor 4 (Homo sapiens) (UniProt Q8WZA2)", "inactive"),
    ("Cc1ccc(C(=O)Nc2ccccc2[N+](=O)[O-])cc1S(=O)(=O)N1CCOCC1", "Rap guanine nucleotide exchange factor 4 (Homo sapiens) (UniProt Q8WZA2)", "inactive"),
    ("CCCc1cc(=O)oc2cc(C)cc(OCC(=O)N[C@@H](CSCc3ccccc3)C(=O)O)c12", "Rap guanine nucleotide exchange factor 4 (Homo sapiens) (UniProt Q8WZA2)", "inactive"),
    ("O=C(Nc1ccc(-c2nnc(-c3ccco3)o2)cc1)C(c1ccccc1)c1ccccc1", "Rap guanine nucleotide exchange factor 4 (Homo sapiens) (UniProt Q8WZA2)", "inactive"),
    ("CCOc1ccc(C(=O)NCC(=O)Nc2ncccc2C)cc1OCC", "Rap guanine nucleotide exchange factor 4 (Homo sapiens) (UniProt Q8WZA2)", "inactive"),
    ("O=C(O)/C(=C\\c1ccc(-c2ccc(F)cc2)o1)c1ccccc1", "Rap guanine nucleotide exchange factor 4 (Homo sapiens) (UniProt Q8WZA2)", "inactive"),
    ("COc1ccc(CN(C)C(=O)c2ccc(OCC(=O)Nc3cccc(C(F)(F)F)c3)c(OC)c2)c(OC)c1", "Rap guanine nucleotide exchange factor 4 (Homo sapiens) (UniProt Q8WZA2)", "inactive"),
]
